Test system: PRKCQ (human), Q04759 [P330L]
Sequence (Q04759 whole entry P330L, looked up): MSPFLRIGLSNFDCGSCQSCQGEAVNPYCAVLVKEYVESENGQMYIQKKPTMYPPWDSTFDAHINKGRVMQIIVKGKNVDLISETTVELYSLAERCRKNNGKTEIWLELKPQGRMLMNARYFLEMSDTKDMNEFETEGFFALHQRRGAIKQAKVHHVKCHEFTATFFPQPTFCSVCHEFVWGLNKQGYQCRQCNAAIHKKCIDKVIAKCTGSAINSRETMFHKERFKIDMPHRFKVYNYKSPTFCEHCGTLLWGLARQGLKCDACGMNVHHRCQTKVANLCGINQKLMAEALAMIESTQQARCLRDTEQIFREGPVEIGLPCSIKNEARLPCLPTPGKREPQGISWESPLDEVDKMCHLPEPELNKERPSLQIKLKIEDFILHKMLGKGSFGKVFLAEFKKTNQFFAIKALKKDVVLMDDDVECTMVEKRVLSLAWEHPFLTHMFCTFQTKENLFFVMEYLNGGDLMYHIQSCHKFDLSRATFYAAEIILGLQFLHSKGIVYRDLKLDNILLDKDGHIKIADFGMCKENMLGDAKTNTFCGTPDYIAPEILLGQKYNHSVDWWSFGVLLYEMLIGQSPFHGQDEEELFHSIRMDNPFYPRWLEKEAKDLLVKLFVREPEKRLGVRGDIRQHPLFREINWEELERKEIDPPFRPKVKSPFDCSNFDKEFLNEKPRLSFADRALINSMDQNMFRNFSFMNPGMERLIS
Test: radiometric filter-binding kinase assay, Kinase HotSpot
Conditions: compound 0.5 µM; ATP 10 µM

{"molecule": "CCn1cnc2c(Nc3cccc(Cl)c3)nc(N[C@@H]3CCCC[C@@H]3N)nc21", "residual activity": "93.3%"}
{"molecule": "Cc1[nH]c(/C=C2\\C(=O)Nc3ccc(S(=O)(=O)N(C)c4cccc(Cl)c4)cc32)c(C)c1C(=O)N1CCN(C)CC1", "residual activity": "107%"}
{"molecule": "O=C(NC(NC(=S)Nc1ccc(F)c([N+](=O)[O-])c1)C(Cl)(Cl)Cl)C(c1ccccc1)c1ccccc1 (centres undefined)", "residual activity": "107%"}
{"molecule": "O=C1Nc2ccc(Br)cc2/C1=C\\c1cc2c([nH]1)CCCC2", "residual activity": "98.4%"}
{"molecule": "O=C1Nc2ccccc2/C1=C1\\Nc2ccccc2\\C1=N/O", "residual activity": "99.1%"}
{"molecule": "O=C1NC(=O)c2c1c1c3ccccc3n3c1c1c2c2ccccc2n1C1CCC3O1", "residual activity": "43.2%"}
{"molecule": "Cc1cccc(-c2nc(C(C)(C)C)[nH]c2-c2ccc3c(c2)OCO3)n1", "residual activity": "107%"}
{"molecule": "COc1ccc(Cl)cc1NC(=O)Nc1cc(C)nc2ccccc12", "residual activity": "96.7%"}
{"molecule": "Nc1cccc(-c2cc3c(Oc4cccc(O)c4)ncnc3[nH]2)c1", "residual activity": "64.5%"}
{"molecule": "O=C1Cc2c([nH]c3ccc(Br)cc23)-c2ccccc2N1", "residual activity": "114%"}
{"molecule": "O=C1NC(=O)c2cc(Nc3ccc(F)cc3)c(Nc3ccc(F)cc3)cc21", "residual activity": "98.7%"}
{"molecule": "Nc1nc(Nc2ccc(S(N)(=O)=O)cc2)nn1C(=S)Nc1c(F)cccc1F", "residual activity": "15.1%"}
{"molecule": "O=c1c2ccccc2[nH]c(=S)n1CCN1CCC(=C(c2ccc(F)cc2)c2ccc(F)cc2)CC1", "residual activity": "92.2%"}
{"molecule": "O=c1c(-c2ccc(F)cc2)c(-c2ccncc2)[nH]n1-c1ccc(Cl)cc1", "residual activity": "119%"}
{"molecule": "Cc1ccc(NC2=CC(=O)c3sc(C)nc3C2=O)cc1", "residual activity": "93%"}
{"molecule": "CCC(=O)Nc1ccc2ncnc(Nc3cccc(Br)c3)c2c1", "residual activity": "96.3%"}
{"molecule": "Nc1ncnc2[nH]nc(Nc3ccc(F)cc3)c12", "residual activity": "103%"}
{"molecule": "Cc1ccc(S(=O)(=O)/C=C/C#N)cc1", "residual activity": "100%"}
{"molecule": "O=C1Nc2ccccc2/C1=C\\c1c(Cl)[nH]c2ccccc12", "residual activity": "91.7%"}
{"molecule": "Cc1cc(Nc2nc(-c3ccccc3)nc3ccccc23)n[nH]1", "residual activity": "82.3%"}
{"molecule": "COc1ccc2c(c1)/C(=C/c1cnc[nH]1)C(O)=N2", "residual activity": "109%"}
{"molecule": "C[C@@H]1CCN(C(=O)CC#N)C[C@@H]1N(C)c1ncnc2[nH]ccc12", "residual activity": "89%"}
{"molecule": "N#C/C(=C1/Nc2ccccc2S1)c1ccnc(NCCc2cccnc2)n1", "residual activity": "104%"}
{"molecule": "O=C(O)/C=C/c1cc(Br)c(Br)c(Br)c1Br", "residual activity": "89.6%"}
{"molecule": "CN(C)C[C@H]1CCn2c(c(C3=C(c4cn(C)c5ccccc45)C(=O)NC3=O)c3ccccc32)C1", "residual activity": "12.7%"}
{"molecule": "Cc1nc2cc3nc(-c4cccs4)cnc3cc2n1C", "residual activity": "100%"}
{"molecule": "O=c1cc(N2CCNCC2)oc2c(-c3ccccc3)cccc12", "residual activity": "117%"}
{"molecule": "O=C(Nc1cccc(Nc2cc(Nc3cccc(C(F)(F)F)c3)ncn2)c1)C1CC1", "residual activity": "87.8%"}
{"molecule": "NC(=O)c1cccc(-c2cc(Nc3ccc(OC(F)(F)F)cc3)ncn2)c1", "residual activity": "104%"}
{"molecule": "O=S(=O)(NCCNC/C=C/c1ccc(Br)cc1)c1cccc2cnccc12", "residual activity": "104%"}
{"molecule": "COc1cc2ncnc(N3CCN(C(=O)Nc4ccc(Oc5ccccc5)cc4)CC3)c2cc1OC", "residual activity": "97.3%"}
{"molecule": "COc1ccc(COc2ccc(Cc3cnc(N)nc3N)cc2OC)cc1", "residual activity": "98%"}
{"molecule": "O=C1NC(=O)c2c1c1c3ccccc3[nH]c1n1cncc21", "residual activity": "88.9%"}
{"molecule": "COc1cc2ncnc(Nc3ccc(O)c(Br)c3)c2cc1OC", "residual activity": "92.8%"}
{"molecule": "O=C1c2ccccc2-c2nc3nnnn3nc21", "residual activity": "83%"}
{"molecule": "O=c1[nH]c2ccccc2n1C1CCN(Cc2ccc(-c3nc4cc5[nH]cnc5cc4nc3-c3ccccc3)cc2)CC1", "residual activity": "96.4%"}
{"molecule": "CNc1cc2c(Nc3cccc(Br)c3)ncnc2cn1", "residual activity": "110%"}
{"molecule": "COc1cccc(-c2cc(=O)c3ccccc3o2)c1N", "residual activity": "103%"}
{"molecule": "COc1ccc2c(c[n+](C)c3c4cc5c(cc4ccc23)OCO5)c1OC", "residual activity": "99.9%"}
{"molecule": "COc1ccc(OC)c2c(=S)c3ccccc3[nH]c12", "residual activity": "98.9%"}
{"molecule": "CCN1/C(=C/C(C)=O)Sc2ccc(OC)cc21", "residual activity": "95.9%"}
{"molecule": "Cc1ccc(Nc2nccc(N(C)c3ccc4c(C)n(C)nc4c3)n2)cc1S(N)(=O)=O", "residual activity": "93.1%"}
{"molecule": "O=S(=O)(c1cccc2cnccc12)N1CCCNCC1", "residual activity": "89.9%"}
{"molecule": "N#Cc1c[nH]c2c[nH]/c(=N\\Cc3cccnc3)cc2/c1=N\\c1ccc(F)c(Cl)c1", "residual activity": "113%"}

---

Some compounds, each annotated with its measured residual activity.
Target: MAP3K10 (human)
Assay: radiometric filter-binding kinase assay, Kinase HotSpot
Conditions: compound 0.5 µM; ATP 10 µM

{"smiles_string": "N#C/C(=C\\c1ccc(O)c(O)c1)C(=O)NCc1ccccc1", "residual activity": "100%"}
{"smiles_string": "CO[C@@H]1[C@H](N(C)C(=O)c2ccccc2)C[C@H]2O[C@]1(C)n1c3ccccc3c3c4c(c5c6ccccc6n2c5c31)C(=O)NC4", "residual activity": "3.15%"}
{"smiles_string": "N#Cc1c[nH]c2c[nH]/c(=N\\Cc3cccnc3)cc2/c1=N\\c1ccc(F)c(Cl)c1", "residual activity": "101%"}
{"smiles_string": "CC(C)(C)c1cc(C=C(C#N)C#N)cc(Br)c1O", "residual activity": "100%"}
{"smiles_string": "O=C1c2ccccc2-c2nc3nnnn3nc21", "residual activity": "94.6%"}
{"smiles_string": "Cc1cccc(-c2nc(C(C)(C)C)[nH]c2-c2ccc3c(c2)OCO3)n1", "residual activity": "99.3%"}
{"smiles_string": "COc1ccc(Cl)cc1NC(=O)Nc1cc(C)nc2ccccc12", "residual activity": "94.9%"}
{"smiles_string": "O=C1C(Cl)=C(N2C(=O)CCC2=O)C(=O)c2ccccc21", "residual activity": "92.8%"}
{"smiles_string": "O=C(c1cc2cc(O)ccc2[nH]1)c1cc2cc(O)ccc2[nH]1", "residual activity": "91.7%"}
{"smiles_string": "COc1ccc2c(c1)/C(=C/c1cnc[nH]1)C(O)=N2", "residual activity": "92.9%"}
{"smiles_string": "O=C1Nc2ccc(Br)cc2/C1=C\\c1cc2c([nH]1)CCCC2", "residual activity": "99.8%"}
{"smiles_string": "Cc1nc(-c2ccccc2)c(-c2ccncc2)o1", "residual activity": "101%"}
{"smiles_string": "CS(=O)(=O)CCNCc1ccc(-c2ccc3ncnc(Nc4ccc(OCc5cccc(F)c5)c(Cl)c4)c3c2)o1", "residual activity": "108%"}
{"smiles_string": "COc1ccc(S(=O)(=O)N(CCO)c2ccccc2CN(C)C/C=C/c2ccc(Cl)cc2)cc1", "residual activity": "92.4%"}
{"smiles_string": "CN(C)S(=O)(=O)c1ccc2c(c1)/C(=C/c1cc3c([nH]1)CCCC3)C(=O)N2", "residual activity": "99.1%"}
{"smiles_string": "COc1ccc(C(=O)Nc2sc3c(c2C(N)=O)CCCC3)cc1OC", "residual activity": "96.6%"}
{"smiles_string": "O=C1NC(=O)c2c1c1c3ccccc3[nH]c1n1cncc21", "residual activity": "82.5%"}
{"smiles_string": "COc1cc2ncnc(Nc3ccc(Oc4ccccc4)cc3)c2cc1OC", "residual activity": "96.7%"}
{"smiles_string": "COc1cc2ncnc(Nc3ccc(OCc4ccccc4)cc3)c2cc1OC", "residual activity": "94.9%"}
{"smiles_string": "C[C@@H]1CCN(C(=O)CC#N)C[C@@H]1N(C)c1ncnc2[nH]ccc12", "residual activity": "105%"}
{"smiles_string": "NC(=O)c1cccc(-c2cc(Nc3ccc(OC(F)(F)F)cc3)ncn2)c1", "residual activity": "95.4%"}
{"smiles_string": "Cn1c2ccccc2c2c3c(c4c5ccccc5n(CCC#N)c4c21)CNC3=O", "residual activity": "25.8%"}
